Origin of measurements: ChEMBL document CHEMBL1926658

Test system: Hepatitis C virus
Experiment: Antiviral activity against HCV genotype 1b infected in human HuH7 cells assessed as reduction in luciferase activity at 10 uM after 3 days
Assay type: functional, Hepacivirus hominis, Huh-7
Design: scale not given: the % may be the effect or the level left
measurement.type: Activity

| smiles.code | measured |
| --- | --- |
| O=C1Cc2cc(-c3ccc(F)cc3)ccc2C(=O)N1O | 73% |
| O=C1Cc2ccc(I)cc2C(=O)N1O | 79% |
| O=C1Cc2cc(-c3cccs3)ccc2C(=O)N1O | 93% |
| Cc1ccc(-c2ccc3c(c2)CC(=O)N(O)C3=O)o1 | 76% |
| O=C1Cc2cc(-c3cccc4c3oc3ccccc34)ccc2C(=O)N1O | 98% |
| O=C1Cc2ccc(-c3ccc(F)c(Cl)c3)cc2C(=O)N1O | 30% |
| O=C1Cc2cc(-c3ccc4c(c3)OCO4)ccc2C(=O)N1O | 28% |
| O=C1Cc2cc(-c3cc4ccccc4o3)ccc2C(=O)N1O | 73% |
| O=C1Cc2cc(-c3csc4ccccc34)ccc2C(=O)N1O | 95% |
| O=C1Cc2ccc(-c3cc4ccccc4o3)cc2C(=O)N1O | 83% |

----------
Consider the following molecules and their measured Activity readings.
System: Hepatitis C virus
Assay: Antiviral activity against HCV genotype 1b infected in human HuH7 cells assessed as reduction in luciferase activity at 10 uM after 3 days
Assay type: functional, Hepacivirus hominis, Huh-7
Parameters: scale not given: the % may be the effect or the level left

| smiles.code | measurement.units | Activity |
| --- | --- | --- |
| COc1cccc(-c2ccc3c(c2)C(=O)N(O)C(=O)C3)c1 | % | 54 |
| O=C1Cc2cc(-c3ccco3)ccc2C(=O)N1O | % | 89 |
| CS(=O)(=O)c1ccc(-c2ccc3c(c2)CC(=O)N(O)C3=O)cc1 | % | 3 |
| O=C1Cc2cc(-c3ccc(F)c(F)c3)ccc2C(=O)N1O | % | 78 |
| O=C1Cc2ccc(-c3cccs3)cc2C(=O)N1O | % | 99 |
| O=C1Cc2cc(-c3ccc(C(F)(F)F)cc3)ccc2C(=O)N1O | % | 93 |
| O=C1Cc2cc(-c3ccoc3)ccc2C(=O)N1O | % | 100 |
| O=C1Cc2cc(-c3cccc4c3sc3ccccc34)ccc2C(=O)N1O | % | 95 |
| O=C1Cc2ccc(-c3ccc(F)c(F)c3)cc2C(=O)N1O | % | 100 |
| O=C1Cc2cc(-c3ccsc3)ccc2C(=O)N1O | % | 72 |
| O=C1Cc2ccc(-c3ccco3)cc2C(=O)N1O | % | 51 |
| O=C1Cc2cc(-c3cccc(-c4ccccc4)c3)ccc2C(=O)N1O | % | 95 |

----------
Assay: Cytotoxicity against human HuH7 cells infected with HCV1b assessed as cell viability at 10 uM after 3 days by MTS assay
Type: cell-based, Huh-7
Conditions: read-out: Activity
Hi! Just check whether viability at 72 h, 10 µM is below 30%. Below gives Met, equal or above gives Not met.

| smiles.code | answer.label |
| --- | --- |
| O=C1Cc2cc(-c3ccsc3)ccc2C(=O)N1O | Not met |
| O=C1Cc2ccc(-c3ccc(F)c(Cl)c3)cc2C(=O)N1O | Not met |
| O=C1Cc2cc(-c3csc4ccccc34)ccc2C(=O)N1O | Not met |
| O=C1Cc2cc(-c3cc4ccccc4o3)ccc2C(=O)N1O | Not met |
| Cc1ccc(-c2ccc3c(c2)CC(=O)N(O)C3=O)o1 | Not met |
| O=C1Cc2cc(-c3cccs3)ccc2C(=O)N1O | Not met |
| O=C1Cc2ccc(-c3cccs3)cc2C(=O)N1O | Met |
| O=C1Cc2cc(-c3ccc4c(c3)OCO4)ccc2C(=O)N1O | Not met |
| O=C1Cc2cc(-c3cccc4c3oc3ccccc34)ccc2C(=O)N1O | Met |
| O=C1Cc2cc(-c3cccc4c3sc3ccccc34)ccc2C(=O)N1O | Not met |
| O=C1Cc2ccc(-c3cc4ccccc4o3)cc2C(=O)N1O | Not met |
| O=C1Cc2ccc(-c3ccc(F)c(F)c3)cc2C(=O)N1O | Not met |
| CS(=O)(=O)c1ccc(-c2ccc3c(c2)CC(=O)N(O)C3=O)cc1 | Not met |
| O=C1Cc2cc(-c3ccc(C(F)(F)F)cc3)ccc2C(=O)N1O | Met |
| O=C1Cc2cc(-c3ccoc3)ccc2C(=O)N1O | Not met |
| O=C1Cc2cc(-c3ccc(F)c(F)c3)ccc2C(=O)N1O | Not met |
| O=C1Cc2ccc(I)cc2C(=O)N1O | Not met |
| O=C1Cc2cc(-c3cccc(-c4ccccc4)c3)ccc2C(=O)N1O | Met |
| O=C1Cc2cc(-c3ccco3)ccc2C(=O)N1O | Not met |
| O=C1Cc2cc(-c3ccc(F)cc3)ccc2C(=O)N1O | Not met |
| COc1cccc(-c2ccc3c(c2)C(=O)N(O)C(=O)C3)c1 | Not met |
| O=C1Cc2ccc(-c3ccco3)cc2C(=O)N1O | Met |

----------
Consider the following compounds and their measured selectivity ratio readings.
Assay: Therapeutic index, ratio of CC50 for human HuH7 cells infected with HCV1b to EC50 for HCV genotype 1b
Type: cell-based, Huh-7
Conditions: read-out: Ratio CC50/EC50

| compound | selectivity ratio |
| --- | --- |
| NC(=O)c1ncn([C@@H]2O[C@H](CO)[C@@H](O)[C@H]2O)n1 [RIBAVIRIN] | 2.3 |
| O=C1Cc2cc(-c3ccco3)ccc2C(=O)N1O | 6.8 |
| C[C@@]1(O)[C@H](O)[C@@H](CO)O[C@H]1n1cnc2c(N)ncnc21 | 270 |
| O=C1Cc2cc(-c3ccsc3)ccc2C(=O)N1O | 2.2 |
| O=C1Cc2cc(-c3cccs3)ccc2C(=O)N1O | 11 |
| O=C1Cc2cc(-c3ccc(F)cc3)ccc2C(=O)N1O | 1.2 |
| Cc1ccc(-c2ccc3c(c2)CC(=O)N(O)C3=O)o1 | 2.6 |
| O=C1Cc2ccc(I)cc2C(=O)N1O | 6.9 |

----------
Assay: Cytotoxicity against human HuH7 cells infected with HCV1b after 3 days by MTS assay
Type: cell-based, Huh-7
Consider the following compounds and their measured CC50 at 72 h readings.

| compound | measurement.units | CC50 at 72 h |
| --- | --- | --- |
| O=C1Cc2ccc(I)cc2C(=O)N1O | µM | 27 |
| O=C1Cc2cc(-c3ccc(F)cc3)ccc2C(=O)N1O | µM | 11 |
| NC(=O)c1ncn([C@@H]2O[C@H](CO)[C@@H](O)[C@H]2O)n1 [RIBAVIRIN] | µM | 32 |
| O=C1Cc2cc(-c3cccs3)ccc2C(=O)N1O | µM | 18 |
| O=C1Cc2cc(-c3ccsc3)ccc2C(=O)N1O | µM | 98 |
| O=C1Cc2cc(-c3ccco3)ccc2C(=O)N1O | µM | 13 |
| C[C@@]1(O)[C@H](O)[C@@H](CO)O[C@H]1n1cnc2c(N)ncnc21 | µM | 55 |
| Cc1ccc(-c2ccc3c(c2)CC(=O)N(O)C3=O)o1 | µM | 11 |
